B1: BEX1 (parent)
chain: HSLRAVSTDPPHHDHHDEFCLMP

Variants of: B1
Method Description: protein stability index of a GFP-peptide fusion (GPS, HEK-293T) (PSI 1-6); higher = more stable;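 also: lentivirally expressed fusions sorted by FACS into six bins by GFP to DsRed ratio, PSI derived from sequencing read proportions per bin multiplied by bin number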
Run Parameters: c terminus: native
Overview of recorded protein stability index for various variants
Quantity Kind: protein stability index

Chain: HSLEAVSTDPPHHDHHDEFCLMP [R4E]
Quantity Kind: protein stability index
Value: 2.41

Chain: HSLKAVSTDPPHHDHHDEFCLMP [R4K]
Quantity Kind: protein stability index
Value: 1.8

Chain: HSLRAVSTDPPHHHHHDEFCLMP [D14H]
Quantity Kind: protein stability index
Value: 2.62

Chain: HSLRAASTDPPHHDHHDEFCLMP [V6A]
Quantity Kind: protein stability index
Value: 2.57

Chain: HSLRAVSTDPPHHDLHDEFCLMP [H15L]
Quantity Kind: protein stability index
Value: 1.7

Chain: HSLRRVSTDPPHHDHHDEFCLMP [A5R]
Quantity Kind: protein stability index
Value: 1.68

Chain: HSLRAVSTDPTHHDHHDEFCLMP [P11T]
Quantity Kind: protein stability index
Value: 1.9

Chain: HSLRAVSTDAPHHDHHDEFCLMP [P10A]
Quantity Kind: protein stability index
Value: 2.39
